Test system: sensitized rabbit leukocytes
experiment summary: Inhibition of histamine release from sensitized rabbit leukocytes (in vitro)
Type: cell-based
condition parameters: relative to chlorphenesin = 1
Description: The procedure published by L. M. Lichtenstein and A. G. Osler, J. EXPTL. MEDICINE, 120:507-530, 1964, for the determination of histamine from human leukocytes, was used to measure histamine release from sensitized rabbit leukocytes. Forty-five ml of blood, drawn by cardiac puncture from ragweed-sensitized rabbits with a plastic syringe containing 250 units of heparin in 5 ml of physiological saline solution, was used. […]
Checkbox rule: Relative in vitro Inhibition of Histamine Release lower than 50 = label 1; Relative in vitro Inhibition of Histamine Release not lower than 50 = label 0.

// known answers, use as guide
- COCCCCSc1ccc(Cl)cc1: label 1
- O=C(O)CCCSc1ccc(Cl)cc1 [Compound 1, Sodium 4-(p-Chlorophenylthio)butyrate]: label 0
- CC(=O)OCCCCSc1ccc(Cl)cc1 [Compound 3, 4-(p-Chlorophenylthio)butyl acetate]: label 0
- OCC(O)COc1ccc(Cl)cc1 (centres unmarked) [chlorphenesin, 3-p-chlorophenoxy-1,2-propanediol, reference compound]: label 1

Moving on to the next compound.
Would you kindly verify if Relative in vitro Inhibition of Histamine Release of O=C(O)CSc1ccc(Cl)cc1 is strictly less than 50?
label 1

These data points were gathered from patent US4124723A.
